These measurements were taken from patent US20230094952A1.

Tested on: human hematopoietic stem cells (CD34-positive cells)
Assay: Confirmation test with human cells: 1-week culture of cord blood Lineage-negative CD34-positive cells, flow cytometry
Assay type: cell-based
Conditions: compound 0.1 μM, 180 cells before culture, no UM171
Excerpt: Collection of Human Cord Blood-Derived Mononuclear Cells Human cord blood-derived mononuclear cells were subjected to removal of erythrocytes and concentration treatment by using EasySep RBC Depletion Reagent (manufactured by […] Technologies Inc.) to obtain a cell population including hematopoietic stem cells. […]
Measured CD34-positive cell count, listed per entry for reference.
Please respond with the number in cell and leave the unit unwritten.

Entry under review: CO[C@H]1O[C@@H]2O[C@@]3(C)CC[C@H]4[C@H](C)CC[C@@H]([C@H]1C)[C@@]24OO3 [Example 1-30, artemether, reference compound] . Reported CD34-positive cell count?
45

Can you handle COCCO[C@H]1O[C@@H]2O[C@@]3(C)CC[C@H]4[C@H](C)CC[C@@H]([C@H]1C)[C@@]24OO3 [Example 1-23] next?
28

Entry C[C@H]1[C@H](c2ccco2)O[C@@H]2O[C@@]3(C)CC[C@H]4[C@H](C)CC[C@@H]1[C@@]24OO3 [Example 1-7] please
80

---
What CD34-positive cell count value was documented for this compound, C[C@H]1[C@H](C(N)=O)O[C@@H]2O[C@@]3(C)CC[C@H]4[C@H](C)CC[C@@H]1[C@@]24OO3 [Example 1-16] ?
92
